- targetOfAssay: Neuronal acetylcholine receptor subunit alpha-7 (Homo sapiens, UniProt P36544)
- Sequence (P36544 whole entry): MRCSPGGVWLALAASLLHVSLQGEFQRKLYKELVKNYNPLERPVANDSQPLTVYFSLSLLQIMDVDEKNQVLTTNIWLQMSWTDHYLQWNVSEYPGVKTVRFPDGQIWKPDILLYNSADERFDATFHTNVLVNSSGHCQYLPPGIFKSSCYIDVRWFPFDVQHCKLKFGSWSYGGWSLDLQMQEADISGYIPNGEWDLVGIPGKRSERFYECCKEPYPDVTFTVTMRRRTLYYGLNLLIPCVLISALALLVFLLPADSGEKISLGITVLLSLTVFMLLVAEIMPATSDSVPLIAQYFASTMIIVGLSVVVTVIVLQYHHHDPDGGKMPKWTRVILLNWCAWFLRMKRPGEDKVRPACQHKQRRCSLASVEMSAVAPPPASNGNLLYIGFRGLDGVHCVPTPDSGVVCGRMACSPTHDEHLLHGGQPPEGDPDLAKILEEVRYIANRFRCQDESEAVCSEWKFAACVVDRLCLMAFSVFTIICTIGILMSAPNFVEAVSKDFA
- experimentDescription: Displacement of [3H]epibatidine from human alpha7 nAChR expressed in CHO cells after 2 hrs by liquid scintillation counting
A collection of compounds and their measured Ki

# example entries with known answers
compound="N#Cc1ccc(C(=O)N2CC3CNCC3C2)o1 (stereo not drawn)" experimentalreadout=Ki recordedresult="> 10 µM"
compound=O=C(c1ccc(Br)o1)N1CC2CNCC(C2)C1 experimentalreadout=Ki recordedresult="> 10 µM"

Neuronal acetylcholine receptor subunit alpha-7 (Homo sapiens, UniProt P36544) Ki of N#Cc1ccoc1C(=O)N1CC2CNCC2C1 (stereo not drawn) is 8.8 µM

###

- targetOfAssay: Neuronal acetylcholine receptor; alpha4/beta2 (Homo sapiens, UniProt P17787+P43681)
- Sequence (P17787 whole entry): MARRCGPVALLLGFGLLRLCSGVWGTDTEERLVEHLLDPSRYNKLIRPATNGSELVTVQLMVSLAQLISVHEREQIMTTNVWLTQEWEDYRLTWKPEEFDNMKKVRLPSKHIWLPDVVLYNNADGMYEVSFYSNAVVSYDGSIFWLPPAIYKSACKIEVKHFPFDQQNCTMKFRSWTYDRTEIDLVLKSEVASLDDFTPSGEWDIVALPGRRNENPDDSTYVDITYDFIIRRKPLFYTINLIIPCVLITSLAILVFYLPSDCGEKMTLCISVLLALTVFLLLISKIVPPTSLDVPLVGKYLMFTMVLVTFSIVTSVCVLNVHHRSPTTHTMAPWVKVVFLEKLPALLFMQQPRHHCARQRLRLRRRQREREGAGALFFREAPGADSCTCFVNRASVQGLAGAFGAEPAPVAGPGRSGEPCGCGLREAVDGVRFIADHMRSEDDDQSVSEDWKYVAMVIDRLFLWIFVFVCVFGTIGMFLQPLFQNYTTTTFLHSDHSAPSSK
- Sequence (P43681 whole entry): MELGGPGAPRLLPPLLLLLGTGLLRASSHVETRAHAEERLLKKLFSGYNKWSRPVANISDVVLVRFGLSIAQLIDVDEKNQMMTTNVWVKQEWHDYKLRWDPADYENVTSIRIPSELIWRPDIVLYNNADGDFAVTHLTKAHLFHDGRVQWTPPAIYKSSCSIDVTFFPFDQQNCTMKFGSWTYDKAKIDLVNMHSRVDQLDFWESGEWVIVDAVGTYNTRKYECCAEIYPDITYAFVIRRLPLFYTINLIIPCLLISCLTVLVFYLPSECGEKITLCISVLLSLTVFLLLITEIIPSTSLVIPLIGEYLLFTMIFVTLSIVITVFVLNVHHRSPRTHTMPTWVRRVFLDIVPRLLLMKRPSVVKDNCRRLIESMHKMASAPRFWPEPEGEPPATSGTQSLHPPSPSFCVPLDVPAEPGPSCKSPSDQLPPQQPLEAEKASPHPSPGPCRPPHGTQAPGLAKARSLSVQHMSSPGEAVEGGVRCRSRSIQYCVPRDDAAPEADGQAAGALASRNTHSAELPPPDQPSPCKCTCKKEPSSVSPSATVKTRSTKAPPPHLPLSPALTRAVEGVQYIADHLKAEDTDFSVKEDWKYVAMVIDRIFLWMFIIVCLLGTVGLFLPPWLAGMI
- experimentDescription: Agonist activity at alpha4beta2 nAChR in human SH-EP1 cells assessed as calcium flux by calcium4-based FLIPR assay
- Assay type: functional, cell-based
experimentalReadout: EC50 (µM)
State the answer as a number, implicitly in µM.

# example entries with known answers
compound=O=C(c1ccco1)N1C[C@H]2CN[C@@H](C2)C1 readoutunit=µM recordedresult=4.7
compound="Cc1ncoc1C(=O)N1CC2CNCC2C1 (centres undefined)" readoutunit=µM recordedresult=6.8

Entry Cc1ccc(C(=O)N2CC3CNCC3C2)o1 (centres undefined) — recorded EC50 = 22

Entry O=C(C1CC1)N1C[C@@H]2CN[C@H](C2)C1 — recorded EC50 = 0.45

###

A collection of compounds and their measured Ki
- targetOfAssay: Neuronal acetylcholine receptor; alpha3/beta4 (Homo sapiens, UniProt P30926+P32297)
- Sequence (P30926 whole entry): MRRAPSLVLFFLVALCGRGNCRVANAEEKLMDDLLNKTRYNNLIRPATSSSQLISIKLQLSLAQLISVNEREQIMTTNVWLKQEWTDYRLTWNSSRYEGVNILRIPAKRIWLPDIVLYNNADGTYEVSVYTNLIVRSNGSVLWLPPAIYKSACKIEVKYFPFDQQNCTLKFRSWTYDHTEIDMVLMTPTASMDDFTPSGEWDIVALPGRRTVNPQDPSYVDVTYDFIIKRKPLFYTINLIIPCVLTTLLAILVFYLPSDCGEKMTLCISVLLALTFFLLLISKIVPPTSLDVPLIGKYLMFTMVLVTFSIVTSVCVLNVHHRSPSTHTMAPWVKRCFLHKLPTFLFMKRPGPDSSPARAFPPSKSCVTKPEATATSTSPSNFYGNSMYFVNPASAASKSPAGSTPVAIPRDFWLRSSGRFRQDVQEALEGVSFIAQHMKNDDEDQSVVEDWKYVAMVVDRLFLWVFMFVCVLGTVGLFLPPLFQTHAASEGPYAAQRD
- Sequence (P32297 whole entry): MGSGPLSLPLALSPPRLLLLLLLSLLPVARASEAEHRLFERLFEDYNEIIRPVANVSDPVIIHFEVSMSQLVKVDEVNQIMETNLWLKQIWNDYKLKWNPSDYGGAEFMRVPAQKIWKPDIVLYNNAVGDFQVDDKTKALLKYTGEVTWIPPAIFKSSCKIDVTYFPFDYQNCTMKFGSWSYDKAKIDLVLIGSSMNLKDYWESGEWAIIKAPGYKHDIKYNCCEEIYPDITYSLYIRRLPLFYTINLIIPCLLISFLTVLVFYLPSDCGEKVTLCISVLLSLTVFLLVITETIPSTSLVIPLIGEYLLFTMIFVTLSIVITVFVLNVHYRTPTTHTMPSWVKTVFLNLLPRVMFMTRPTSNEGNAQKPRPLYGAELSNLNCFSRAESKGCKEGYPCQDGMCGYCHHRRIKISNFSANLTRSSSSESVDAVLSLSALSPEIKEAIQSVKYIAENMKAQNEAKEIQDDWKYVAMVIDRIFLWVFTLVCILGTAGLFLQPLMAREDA
- experimentDescription: Displacement of [3H]epibatidine from human alpha3beta4 nAChR expressed in CHO cells after 2 hrs by liquid scintillation counting
- Assay type: cell-based
State the answer as a number, implicitly in µM.

compound=O=C(c1cc(F)co1)N1CC2CNCC(C2)C1 experimentalreadout=Ki recordedresult=3.2
compound=O=C(c1ccc(Br)o1)N1CC2CNCC(C2)C1 experimentalreadout=Ki recordedresult=6.5
compound="N#Cc1ccc(C(=O)N2CC3CNCC3C2)o1 (stereo not drawn)" experimentalreadout=Ki recordedresult=4.8
compound="O=C(c1ccno1)N1CC2CNCC2C1 (stereo not drawn)" experimentalreadout=Ki recordedresult=7.1
compound=O=C(C1CC1)N1CC2CNCC(C2)C1 experimentalreadout=Ki recordedresult=0.11

// next entry
Entry O=C(C1CC1)N1CC2CNC(C2)C1 (stereo not drawn) — recorded Ki = 0.42

###

- targetOfAssay: Neuronal acetylcholine receptor; alpha3/beta4 (Homo sapiens, UniProt P30926+P32297)
- experimentDescription: Agonist activity at human alpha3beta4 nAChR expressed in CHO cells assessed as calcium flux by calcium4-based FLIPR assay
experimentalReadout: pEC50
Would you please state pEC50, meaning minus log10 of the concentration in mol/L, as a bare number?

# example entries with known answers
compound=O=C(c1ccncc1)N1CC2CNCC(C2)C1 experimentalreadout=pEC50 recordedresult=4.27
compound="O=C(c1ccco1)N1CC2CNC(C2)C1 (centres undefined)" experimentalreadout=pEC50 recordedresult=5.16
compound="O=C(c1ccoc1)N1CC2CNCC2C1 (centres undefined)" experimentalreadout=pEC50 recordedresult=4.46
compound="COc1ccc(C(=O)N2CC3CNCC3C2)cc1 (centres undefined)" experimentalreadout=pEC50 recordedresult=4.51
compound="O=C(c1cc(Cl)co1)N1CC2CNCC2C1 (centres undefined)" experimentalreadout=pEC50 recordedresult=4.25
compound="N#Cc1ccoc1C(=O)N1CC2CNCC2C1 (centres undefined)" experimentalreadout=pEC50 recordedresult=4.66
compound="O=C(c1ccno1)N1CC2CNCC2C1 (centres undefined)" experimentalreadout=pEC50 recordedresult=4.18
compound="O=C(c1ccc(Br)o1)N1CC2CNCC2C1 (centres undefined)" experimentalreadout=pEC50 recordedresult=4.54

Entry O=C(c1occc1F)N1CC2CNCC(C2)C1 — recorded pEC50 = 4.49

Entry N#Cc1ccc(C(=O)N2CC3CNCC3C2)o1 (centres undefined) — recorded pEC50 = 4.21

Entry O=C(c1ccc(F)o1)N1CC2CNCC(C2)C1 — recorded pEC50 = 5.04

Entry Cc1ccc(C(=O)N2CC3CNCC3C2)o1 (centres undefined) — recorded pEC50 = 4.24

Entry O=C(c1ccccn1)N1CC2CNCC2C1 (centres undefined) — recorded pEC50 = 4.29

Entry Cc1ccoc1C(=O)N1CC2CNCC(C2)C1 — recorded pEC50 = 4.60

Entry O=C(c1ncco1)N1CC2CNCC2C1 (centres undefined) — recorded pEC50 = 4.10

Entry O=C(c1ccc(Cl)o1)N1C[C@H]2CN[C@@H](C2)C1 — recorded pEC50 = 4.85

Entry O=C(c1occc1Br)N1CC2CNCC2C1 (centres undefined) — recorded pEC50 = 4.57

Entry O=C(C1CC1)N1CC2CNC(C2)C1 (centres undefined) — recorded pEC50 = 5.38

Entry Cc1ccc(C(=O)N2CC3CNCC(C3)C2)o1 — recorded pEC50 = 4.43

Entry O=C(c1ccc(F)o1)N1CC2CNCC2C1 (centres undefined) — recorded pEC50 = 4.51

Entry COc1ccc(C(=O)N2CC3CNCC(C3)C2)cc1 — recorded pEC50 = 4.55

Entry O=C(C1CC1)N1C[C@H]2CN[C@@H](C2)C1 — recorded pEC50 = 5.85

Entry O=C(c1ccncc1)N1CC2CNCC2C1 (centres undefined) — recorded pEC50 = 4.49

Entry N#Cc1ccc(C(=O)N2CC3CNCC(C3)C2)o1 — recorded pEC50 = 4.47

###

- targetOfAssay: Neuronal acetylcholine receptor; alpha3/beta4 (Homo sapiens, UniProt P30926+P32297)
- experimentDescription: Agonist activity at human alpha3beta4 nAChR expressed in CHO cells assessed as calcium flux by calcium4-based FLIPR assay
The label true (1) is reserved for EC50 strictly under 20 µM; false (0) covers values equal to or above it.

Answered examples (4):
compound=O=C(c1ccc(F)o1)N1C[C@@H]2CN[C@H](C2)C1 class="true (1)"
compound="O=C(c1cnco1)N1CC2CNCC2C1 (configuration not stated)" class="false (0)"
compound="O=C(c1occc1F)N1CC2CNCC2C1 (configuration not stated)" class="false (0)"
compound=O=C(c1cc(Br)co1)N1CC2CNCC(C2)C1 class="false (0)"

Query :: I wonder whether O=C(c1ccncc1)N1CC2CNC(C2)C1 (configuration not stated) has EC50 below 20 µM. Can you tell?
Result :: true (1)

Query :: I wonder whether O=C(c1cc(F)co1)N1CC2CNCC(C2)C1 has EC50 below 20 µM. Can you tell?
Result :: false (0)

Query :: I wonder whether O=C(c1occc1Cl)N1CC2CNCC(C2)C1 has EC50 below 20 µM. Can you tell?
Result :: false (0)

###

- targetOfAssay: Neuronal acetylcholine receptor; alpha3/beta4 (Homo sapiens, UniProt P30926+P32297)
- experimentDescription: Agonist activity at human alpha3beta4 nAChR expressed in CHO cells assessed as calcium flux by calcium4-based FLIPR assay
experimentalReadout: pEC50
Would you please state pEC50, meaning minus log10 of the concentration in mol/L, as a bare number?

molecule=O=C(c1ccc(Br)o1)N1C[C@@H]2CN[C@H](C2)C1 recordedresult=4.80
molecule="Cc1ncoc1C(=O)N1CC2CNCC2C1 (stereo not drawn)" recordedresult=4.48
molecule=O=C(c1ccc(Cl)o1)N1CC2CNCC(C2)C1 recordedresult=4.82
molecule=O=C(c1ccccc1)N1CC2CNCC(C2)C1 recordedresult=4.55

Entry O=C(c1ccco1)N1CC2CNCC(C2)C1 — recorded pEC50 = 4.37

Entry O=C(C1CC1)N1C[C@@H]2CN[C@H](C2)C1 — recorded pEC50 = 5.74

Entry O=C(c1ccco1)N1C[C@@H]2CN[C@H](C2)C1 — recorded pEC50 = 4.82

Entry O=C(c1cccnc1)N1CC2CNCC2C1 (stereo not drawn) — recorded pEC50 = 4.54

Entry O=C(c1ccccc1)N1CC2CNCC2C1 (stereo not drawn) — recorded pEC50 = 4.55

Entry N#Cc1coc(C(=O)N2CC3CNCC(C3)C2)c1 — recorded pEC50 = 4.46

Entry N#Cc1coc(C(=O)N2CC3CNCC3C2)c1 (stereo not drawn) — recorded pEC50 = 4.51

Entry O=C(c1cc(Br)co1)N1CC2CNCC2C1 (stereo not drawn) — recorded pEC50 = 4.44

Entry O=C(c1ccco1)N1CC2CNCC2C1 (stereo not drawn) — recorded pEC50 = 4.38

Entry O=C(c1occc1Br)N1CC2CNCC(C2)C1 — recorded pEC50 = 4.62

Entry O=C(c1occc1Cl)N1CC2CNCC2C1 (stereo not drawn) — recorded pEC50 = 4.66

Entry O=C(c1ccc(Br)o1)N1CC2CNCC(C2)C1 — recorded pEC50 = 4.52

###

- targetOfAssay: Neuronal acetylcholine receptor subunit alpha-7 (Homo sapiens, UniProt P36544)
- experimentDescription: Displacement of [3H]epibatidine from human alpha7 nAChR expressed in CHO cells after 2 hrs by liquid scintillation counting
experimentalReadout: pKi
Would you please state pKi, meaning minus log10 of the concentration in mol/L, as a bare number?

# example entries with known answers
molecule=O=C(C1CC1)N1C[C@@H]2CN[C@H](C2)C1 recordedresult=6.68
molecule="O=C(c1cnco1)N1CC2CNCC2C1 (configuration not stated)" recordedresult=5.12

// next entry
Entry N#Cc1coc(C(=O)N2CC3CNCC3C2)c1 (configuration not stated) — recorded pKi = 5.07
